# Tested on: sweet corn (Delicious 100)
# experiment.summary: Visual growth study, phytotoxicity index, chemicals scattered 14 days after sowing
# Format: in vivo
# cond: 1.5 leaves stage, treated 14 days after sowing, 8 days after treatment, 0-100 scale, 4-(tert-butyl)benzoic acid 1000 g ai/ha in Examples, 0 in Comparative Examples, herbicide dose per label
Known Phytotoxicity index of a selection of compounds
No unit in the answer, please; the number alone is enough.

COC[C@H](C)N(C(=O)CCl)c1c(C)csc1C [compound 15, Dimethenamide-P] ... 20
CS(=O)(=O)c1ccc(C(=O)C2C(=O)CCCC2=O)c([N+](=O)[O-])c1 ... 13
O=C(Nc1ccc(F)cc1F)c1cccnc1Oc1cccc(C(F)(F)F)c1 ... 35

Next item in the queue.
stdin: Give a short answer stating reported Phytotoxicity index for COc1cc(OC)nc(Oc2cccc(Oc3nc(OC)cc(OC)n3)c2C(=O)O)n1 [compound 14, Bispyribac-sodium] .
stdout: 45
